# hCB2 receptors (Homo sapiens, UniProt P34972): Ki values follow
# Sequence (P34972 whole entry): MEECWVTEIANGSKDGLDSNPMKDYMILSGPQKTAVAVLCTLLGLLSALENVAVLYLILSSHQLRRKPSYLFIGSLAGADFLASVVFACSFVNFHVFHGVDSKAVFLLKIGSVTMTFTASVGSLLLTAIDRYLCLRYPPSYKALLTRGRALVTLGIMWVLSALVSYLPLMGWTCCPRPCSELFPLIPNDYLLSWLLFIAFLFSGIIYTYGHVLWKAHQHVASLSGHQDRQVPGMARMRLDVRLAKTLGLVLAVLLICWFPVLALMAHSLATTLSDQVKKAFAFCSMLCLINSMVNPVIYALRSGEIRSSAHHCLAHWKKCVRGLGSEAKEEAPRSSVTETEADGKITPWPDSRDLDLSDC
Write the figure, then the unit, nothing else.

Q) Reported Ki, compound CC/C(=C(/c1ccc(O)cc1)c1ccc(OCCNC)cc1)c1ccccc1 [E-End, 4-hydroxy-N-desmethyl tamoxifen] : ____
A) 2.35 µM

Q) Reported Ki, compound CC/C(=C(\c1ccc(O)cc1)c1ccc(OCCN(C)C)cc1)c1ccccc1 [Z-4OHT, 4-hydroxytamoxifen] : ____
A) 0.495 µM

Q) Reported Ki, compound CC/C(=C(\c1ccc(O)cc1)c1ccc(OCCN(C)C)cc1)c1ccccc1 [E-4OHT, 4-hydroxytamoxifen] : ____
A) 0.957 µM

Q) Reported Ki, compound CC/C(=C(\c1ccc(O)cc1)c1ccc(OCCNC)cc1)c1ccccc1 [Z-End, 4-hydroxy-N-desmethyl tamoxifen] : ____
A) 2.39 µM

---

tested_target: hCB2 receptors (Homo sapiens)
experiment: Forskolin-stimulated intracellular [3H]cAMP in intact CHO-hCB2 cells
condition: increase of forskolin-stimulated cAMP, values only approximate
Description: CHO-hCB1, CHO-hCB2, or CHO-hMOR cells were plated separately in normal culture media into 24-well plates at a density of 6 × 10^6 cells/plate and incubated overnight at 37°C in 5% CO2. […] Radioactivity contained in 4 ml of the final column eluate was counted by a Packard-Tri-carb 2100/TR liquid scintillation counter after adding 10 ml of liquid scintillation cocktail. […]
measurement_label: pEC50
Please report pEC50 as the negative decimal logarithm of the molar concentration, giving only the number.

Q) Reported pEC50, compound CC/C(=C(\c1ccc(O)cc1)c1ccc(OCCN(C)C)cc1)c1ccccc1 [Z-4OHT, 4-hydroxytamoxifen] : ____
A) 5.31

Q) Reported pEC50, compound CC/C(=C(\c1ccc(O)cc1)c1ccc(OCCNC)cc1)c1ccccc1 [Z-End, 4-hydroxy-N-desmethyl tamoxifen] : ____
A) 4.94

Q) Reported pEC50, compound `COc1ccc(C(=O)c2c(C)n(CCN3CCOCC3)c3cc(I)ccc23)cc1` : ____
A) 6.40

Q) Reported pEC50, compound CC/C(=C(/c1ccc(O)cc1)c1ccc(OCCNC)cc1)c1ccccc1 [E-End, 4-hydroxy-N-desmethyl tamoxifen] : ____
A) 4.97

Q) Reported pEC50, compound CC/C(=C(\c1ccc(O)cc1)c1ccc(OCCN(C)C)cc1)c1ccccc1 [E-4OHT, 4-hydroxytamoxifen] : ____
A) 5.04

---

Would you mind telling me the reported Selectivity (CB1/CB2) of each entry?
tested_target: hCB1 receptors (Homo sapiens)
Sequence (P21554 whole entry): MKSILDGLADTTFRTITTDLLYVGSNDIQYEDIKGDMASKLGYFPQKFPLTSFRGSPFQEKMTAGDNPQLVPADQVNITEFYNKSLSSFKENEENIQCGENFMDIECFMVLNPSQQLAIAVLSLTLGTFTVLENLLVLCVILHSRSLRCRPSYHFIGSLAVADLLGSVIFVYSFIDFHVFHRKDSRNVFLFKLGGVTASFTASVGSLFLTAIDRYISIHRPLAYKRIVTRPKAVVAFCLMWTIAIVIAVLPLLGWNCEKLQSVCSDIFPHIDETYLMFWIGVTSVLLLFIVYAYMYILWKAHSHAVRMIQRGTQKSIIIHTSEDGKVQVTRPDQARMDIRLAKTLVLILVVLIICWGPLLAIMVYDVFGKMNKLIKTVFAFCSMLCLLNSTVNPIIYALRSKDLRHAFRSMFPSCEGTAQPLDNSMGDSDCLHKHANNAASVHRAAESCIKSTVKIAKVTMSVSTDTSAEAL
experiment: Competition receptor binding with [3H]CP-55,940, CHO-hCB1 membranes
condition: ratio hCB1-Ki/hCB2-Ki
When you answer, write just the number.

Q) GET /values?readout=Selectivity (CB1/CB2)&system=hCB1 receptors (Homo sapiens)&item= CC/C(=C(\c1ccc(O)cc1)c1ccc(OCCN(C)C)cc1)c1ccccc1 [Z-4OHT, 4-hydroxytamoxifen]
A) 1.38

Q) GET /values?readout=Selectivity (CB1/CB2)&system=hCB1 receptors (Homo sapiens)&item= CC/C(=C(\c1ccc(O)cc1)c1ccc(OCCN(C)C)cc1)c1ccccc1 [E-4OHT, 4-hydroxytamoxifen]
A) 1.30

Q) GET /values?readout=Selectivity (CB1/CB2)&system=hCB1 receptors (Homo sapiens)&item= CC/C(=C(/c1ccc(O)cc1)c1ccc(OCCNC)cc1)c1ccccc1 [E-End, 4-hydroxy-N-desmethyl tamoxifen]
A) 0.59
